system: DLD-1; assay: NCI tumour cell line growth inhibition, 48 h
The source made the active and inactive calls. Rule as the data show it: active = GI50 up to about 1.1 µM and inactive = higher.
Your answer must be one of the following: active, inactive

INPUT: What classification did `Nc1nc(Cl)cc(NCCCNc2cc(Cl)nc(N)n2)n1` end up with in this test?
OUTPUT: inactive

INPUT: Just curious, what result did CCOC(=O)CP(=S)(S)c1ccccc1 (configuration not stated) get here?
OUTPUT: inactive

INPUT: Could you kindly confirm the outcome this assay logged for CC1(C)COC2(OC1)C1=NS(=O)(=O)CC13CCC2C3(C)C (configuration not stated) ?
OUTPUT: inactive

INPUT: Per the assay record, what outcome was assigned to CC#CC1C(OC(=O)c2ccccc2)CCCC1(CI)N=[N+]=[N-] (configuration not stated) ?
OUTPUT: inactive

INPUT: Write down the call the test reported for this molecule. Item: CC(C)=CCC/C(C)=C/CC/C(C)=C/CCC1(C)CCC([C@H](C)C(=O)O)OO1.CC1=C(CC/C(C)=C/CCC2(C)CCC([C@H](C)C(=O)O)OO2)C(C)(C)CCC1 (some centres not stated)
OUTPUT: inactive

INPUT: Each molecule tested received a call. Report the one for `COc1ccc(-c2cc(O)c3cc4c(cc3n2)OCO4)cc1` .
OUTPUT: inactive

INPUT: So what was the verdict on `O=c1[nH]nc2c3n[nH]c(=O)n3c3ccccc3n12` in this test?
OUTPUT: inactive

INPUT: For CCCCCCCCCCCCCCCCCC(=O)NCC(COP(=O)(O)O)OCC (configuration not stated) , which call appears in the assay record?
OUTPUT: inactive

INPUT: Fill in: this test's call for `COc1cccc(OC)c1/C=N\N1C(=O)c2ccccc2C1=O` is ___
OUTPUT: inactive

INPUT: // param item: Cc1ccc(/N=N/C(C2=NC(=O)CS2)c2nc3ccccc3[nH]2)cc1 (configuration not stated) ; yields the recorded call
OUTPUT: inactive

INPUT: Short answer needed: outcome of this test for `O=C1C=C(Br)C(=O)C(Br)=C1` ?
OUTPUT: inactive

INPUT: Given `C=CCCOC(=O)CO[N+](=O)[O-]` , state the outcome it received in this test.
OUTPUT: inactive

INPUT: Which outcome was entered for the molecule `OCC[N+]12CCCN1CCC2` in this test?
OUTPUT: inactive

INPUT: Please share the test call associated with `CCOC(=O)[C@H](Cc1ccccc1)NC(=O)c1nc[nH]c1[N+](=O)[O-]` .
OUTPUT: inactive

INPUT: Outcome? COC1CC(CC2CCC(C)C(C(C)C(=O)O)O2)OC2(OC(C)(C3CCC(C)(C4OC(C5OC(O)(CO)C(C)CC5C)CC4C)O3)CC2C)C1C (configuration not stated)
OUTPUT: active

INPUT: So what was the verdict on CC(C)(C)OP(=O)(OC(C)(C)C)C(O)c1ccc(/C=C(\C#N)C(N)=O)cc1 (configuration not stated) in this test?
OUTPUT: inactive

INPUT: Check the results log: what was the call for COc1ccc(/C(=N/NC(N)=O)C(c2ccc(OC)cc2)C2C(=O)Oc3ccccc32)cc1 (configuration not stated) ?
OUTPUT: inactive

INPUT: So what was the verdict on C=CC[P@@]1(=O)O[C@H](c2ccccc2)C(C)N1C(C)C (some centres not stated) in this test?
OUTPUT: inactive

INPUT: So what was the verdict on `COC(=O)N/N=C(\C)CC(=O)Nc1ccc(Cl)cc1` in this test?
OUTPUT: inactive

INPUT: How was `COc1cc2c(cc1C1=NC(C)(C)CO1)OCO2` classified in this test?
OUTPUT: inactive

INPUT: Which outcome did this test record for the molecule OC1(C23CC4CC(CC(C4)C2)C3)CSCC1(O)C12CC3CC(CC(C3)C1)C2 (configuration not stated) ?
OUTPUT: inactive

INPUT: Check the results log: what was the call for `O=C(O)CC[C@H](NC(=O)c1ccc(-n2nc3ccc(=O)cc-3[nH]c2=O)cc1)C(=O)O` ?
OUTPUT: inactive
